- tested.system: dopamine D2 receptor (Rattus norvegicus)
- Construct: homogenized rat striatal brain tissue; from tissue; host or cells: rat striatum homogenate
- experiment.description: Affinity for the dopamine D2 receptor (3H-quinpirole, rat striatal homogenate)
- Assay type: binding
assay.readout: IC50
In your response, the unit should come after the numeric value.

Known results for molecules:
O=C1Cc2c(ccc3c2O[C@@H](CN2CCC4(CC2)C(=O)NCN4c2ccccc2)CO3)N1 [Example 3] | 3.2 nM
O=C1Cc2c(ccc3c2O[C@@H](CN2CC=C(c4ccccc4)CC2)CO3)N1 [Example 5] | 1.2 nM

Field: next molecule
Reported IC50 for O=C1Cc2c(ccc3c2O[C@@H](CN2CCC(n4c(=O)[nH]c5ccccc54)CC2)CO3)N1 [Example 4] : what is it?
4.08 nM

====

- tested.system: dopamine D2 receptor (Rattus norvegicus, UniProt P61169)
- Construct: homogenized rat striatal brain tissue; from tissue; host or cells: rat striatum homogenate
- Sequence (P61169 whole entry): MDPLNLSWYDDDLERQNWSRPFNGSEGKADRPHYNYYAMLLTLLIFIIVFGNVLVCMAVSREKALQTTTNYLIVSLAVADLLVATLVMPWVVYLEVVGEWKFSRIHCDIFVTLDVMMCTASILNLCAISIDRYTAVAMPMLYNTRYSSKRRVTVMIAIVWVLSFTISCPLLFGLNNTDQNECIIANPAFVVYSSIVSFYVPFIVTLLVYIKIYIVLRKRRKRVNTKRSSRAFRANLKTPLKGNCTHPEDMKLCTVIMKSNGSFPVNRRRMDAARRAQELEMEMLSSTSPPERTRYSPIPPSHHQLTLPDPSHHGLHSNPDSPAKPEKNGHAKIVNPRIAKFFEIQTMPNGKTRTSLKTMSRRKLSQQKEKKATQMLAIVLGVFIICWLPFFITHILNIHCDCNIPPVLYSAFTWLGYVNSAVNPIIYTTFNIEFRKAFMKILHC
- experiment.description: Affinity for the dopamine D2 receptor (3H-quinpirole, rat striatal homogenate)
- Format: binding
- experimental.conditions: rat striatal brain tissue homogenate, 3H-quinpirole; read-out: D2 Receptor Affinity (IC50 (nM))
assay.readout: IC50 (nM)
The reply should contain only the number, in nM.

Reported IC50 for O=C1Cc2c(c(F)cc3c2O[C@@H](CN2CCc4ccccc4C2)CO3)N1 [Example 7] : what is it?
0.23

Reported IC50 for O=C1Cc2c(ccc3c2O[C@@H](CN2CCC(C(=O)c4ccc(F)cc4)CC2)CO3)N1 [Example 2] : what is it?
0.73

Reported IC50 for O=C1Cc2c(ccc3c2O[C@@H](CN2CCc4ccccc4C2)CO3)N1 [Example 1] : what is it?
0.35

Reported IC50 for O=C1Cc2c(ccc3c2O[C@@H](CN2CCN(c4cccc5[nH]ccc45)CC2)CO3)N1 [Example 6] : what is it?
4.06

Entry source: patent US5869490A
